system: Wolbachia pipientis; test: Anti-Wolbachia Cell-Based Screen; assay type: functional; parameters: scale not given: in the data most compounds retested in dose-response had high values; conditions: 5 µM
Among all 48,000 compounds or so, about 13,000 (27%) showed an effect of 50% or more. The list shows a part of the results.
Reported endpoint: Percent Effect (%)
Give bare numbers, in %.

# count of solved cases: 8
[in] Which Percent Effect is listed for Cn1c(C(F)(F)F)nn(CCNC(=O)c2ccccn2)c1=O ?
[out] -5.949

[in] Do the same for CSc1ccc(-c2nc(CN3CCCC(CNC(C)=O)C3)c(C)o2)cc1 (configuration not stated) please
[out] 24.94

[in] Do the same for O=C(C1CCCC1)N1CCOC(c2nc(-c3ncccn3)no2)C1 (configuration not stated) please
[out] 90.83

[in] Do the same for CC(C)CN(Cc1ccc(C(F)(F)F)nc1)Cc1cnn(C)c1 please
[out] -7.949

[in] Do the same for CC(C)N1CCC(CC(=O)NCCc2cc(O)ncn2)CC1 please
[out] -16.23

[in] Do the same for CN(C)c1ncc(-c2cc(C(=O)NCCC#N)n(CC3CC3)c2)cn1.O=C(O)C(F)(F)F please
[out] 101.1

[in] Do the same for CC(=O)N1CC[C@@]2(O)CCCC[C@H]2[C@@H]1c1ccc2c(c1)OCO2 please
[out] 121.2

[in] Do the same for CC(=O)NCc1ccc(-n2ccnc2C)nc1 please
[out] 28.24

State the recorded Percent Effect for every item in the following list.
1. O=C(O)C(c1ccc2c(c1)OCO2)N1CCC(C(=O)N2CCCC2)CC1 (configuration not stated)
2. Cc1nccn1-c1ccc(=O)n(CCNC(=O)c2c(F)cccc2Cl)n1
3. CN1CC[C@H](c2nnc(Cc3c[nH]c4ccccc34)o2)C1
4. CN1CCC(c2cc(CCO)ncn2)C1 (configuration not stated)

[out]
1: 0.296; 2: 122.2; 3: -2.7; 4: 105.5

State the recorded Percent Effect for every item in the following list.
1. CCCN1CCN(Cc2nc3ccccc3[nH]2)[C@H]2CS(=O)(=O)C[C@H]21
2. O=c1ccc(-n2ccnc2)nn1CCNS(=O)(=O)c1ccccc1Cl
3. Cc1cnc(N2C[C@@H]3CCN(CC(=O)N(C)C)C(=O)[C@H]3C2)nc1.O=C(O)C(F)(F)F
4. Cc1cc(CN(C)CC2(O)CCCN(CCC3CCCCC3)C2=O)no1 (configuration not stated)

[out]
1. -8.969
2. -3.668
3. -29.89
4. -6.768

State the recorded Percent Effect for every item in the following list.
1. O=C(CC1CCCC1)N1CCOC(c2nc(-c3ncccn3)no2)C1 (configuration not stated)
2. CN(C)C(=O)COCc1cncc2c1CCN(Cc1cnn(C)c1)C2.O=C(O)C(F)(F)F.O=C(O)C(F)(F)F

[out]
1: 86.32; 2: -8.97

State the recorded Percent Effect for every item in the following list.
1. O=C(C1CCCC1)N1CC(c2nc(Cc3ccccc3)no2)C1
2. COc1cccc(-c2cccc(-c3ccn(CC4COCCO4)n3)c2)n1 (configuration not stated)
3. COc1ccccc1OCC(=O)Nc1ncccc1OC(F)F
4. O=C(O)C(F)(F)F.O=C(O)C(F)(F)F.O=C(c1ccncc1)N1CC[C@@H]2[C@@H](CC1)OCCN2c1cccnc1

[out]
1: 3.47; 2: -14.19; 3: -1.305; 4: -4.707
